# Test system: RSV
# measurement_description: microbe, parasite or virus in culture
# Type: cell-based, Human Respiratory Syncytial Virus (RSV) strain A2
# assay_setup: human respiratory syncytial virus, Vero 76, read-out: EC50 RSV
quantity: EC50 (µM)
// units = µM; emit number, no label

Input: Please report EC50 for the following molecule: O=C(Nc1ccc(-n2nc3cc(Cl)c(Cl)cc3n2)cc1)c1ccc(C(F)(F)F)cc1 [8g]
Output: 50

Input: Indicate the recorded EC50 value for this molecule: COc1ccc(C(=O)Nc2ccc(-n3nnc4cc(Cl)c(Cl)cc43)cc2)cc1 [7c]
Output: 35

###

quantity: melting point

>  <compound>
COc1cc(C(=O)Nc2ccc(-n3nnc4cc(Cl)c(Cl)cc43)cc2)cc(OC)c1OC

>  <value_reported>
212 to 213 °C

$$$$

Input: Provide measured melting point value, entry: CCCCNC(=O)Nc1ccc(-n2nc3cc(Cl)c(Cl)cc3n2)cc1 [10c]
Output: > 300 °C

Input: Please supply the value of reported melting point for the item O=C(Nc1ccccc1)Nc1ccc(-n2nc3cc(Cl)c(Cl)cc3n2)cc1 [10e]
Output: > 290 °C

Input: Consider the compound `CCC(=O)Nc1ccc(-n2nnc3cc(Cl)c(Cl)cc32)cc1` . State its measured melting point.
Output: 175 to 177 °C

Input: Give melting point for the following compound: `O=C(Nc1ccc(-n2nnc3cc(Cl)c(Cl)cc32)cc1)c1ccc([N+](=O)[O-])cc1`
Output: 238 to 240 °C

Input: Give the reported value of melting point for this record: O=C(Nc1ccc(Cl)cc1)Nc1ccc(-n2nc3cc(Cl)c(Cl)cc3n2)cc1 [10h]
Output: > 290 °C

Input: For `O=C(Nc1ccc(-n2nc3cc(Cl)c(Cl)cc3n2)cc1)c1ccc([N+](=O)[O-])cc1` , write its melting point.
Output: > 297 °C

Input: Report melting point for `COc1cc(C(=O)Nc2ccc(-n3nc4cc(Cl)c(Cl)cc4n3)cc2)cc(OC)c1OC`
Output: 199 to 201 °C

Input: Consider the compound `CCCC(=O)Nc1ccc(-n2nc3cc(Cl)c(Cl)cc3n2)cc1` and give its recorded melting point.
Output: 243 to 245 °C

Input: Could you please provide reported melting point for `N#Cc1ccc(C(=O)Nc2ccc(-n3nc4cc(Cl)c(Cl)cc4n3)cc2)cc1` ? Thanks!
Output: 263 to 265 °C

Input: # return recorded melting point for input O=C(Nc1ccc(-n2nc3cc(Cl)c(Cl)cc3n2)cc1)NC1CCCCC1 [10d]
Output: > 300 °C

Input: Identify melting point associated with the compound `O=C(Nc1ccc(-n2nc3cc(Cl)c(Cl)cc3n2)cc1)c1ccc(Cl)cc1`
Output: 268 to 270 °C

Input: Supply melting point value. Item: `CCCC(=O)Nc1ccc(-n2nnc3cc(Cl)c(Cl)cc32)cc1`
Output: 202 to 204 °C

Input: Return melting point for the following compound: `Cc1ccc(C(=O)Nc2ccc(-n3nnc4cc(Cl)c(Cl)cc43)cc2)cc1`
Output: 226 to 228 °C

Input: Please list melting point recorded for the compound `O=C(Nc1ccc(-n2nnc3cc(Cl)c(Cl)cc32)cc1)c1ccc(C(F)(F)F)cc1`
Output: > 290 °C

Input: Give the reported melting point for this compound. `O=C(Nc1ccc(-n2nc3cc(Cl)c(Cl)cc3n2)cc1)c1ccccc1`
Output: > 290 °C

Input: Give a short answer stating reported melting point for `COc1ccc(C(=O)Nc2ccc(-n3nc4cc(Cl)c(Cl)cc4n3)cc2)cc1` .
Output: 274 to 276 °C

Input: // Input: `CCC(=O)Nc1ccc(-n2nc3cc(Cl)c(Cl)cc3n2)cc1` . Output its melting point only.
Output: 258 to 260 °C

Input: Recall and state the measured melting point for `N#Cc1ccc(C(=O)Nc2ccc(-n3nnc4cc(Cl)c(Cl)cc43)cc2)cc1` .
Output: 227 to 229 °C

Input: Please report the measured melting point for O=C(Nc1ccc(F)cc1)Nc1ccc(-n2nc3cc(Cl)c(Cl)cc3n2)cc1 [10i]
Output: > 290 °C
